Documented MFI across a set of binders
- tgt: T1, cynomolgus CCR8 (cynomolgus monkey)
- T1 construct: whole, on cells; the constructs of the cell lines are not tied to it word for word; also called cynoCCR8
- test-details: flow cytometry, hybridoma supernatant on CHOK1-cynoCCR8 cells
reported-endpoint: MFI (MFI)

binder	reported-endpoint	units	value-observed
569D11B5 (antibody, V domains shown, Murine hybridoma antibody; also called 569D11B5 hybridoma antibody) VH: EVQLIESGGGLVQPKGSLKLSCAASGFNFNAYAMNWVRQAPGKGLEWVARIRSKSNDFATYYADSVKGRFTISRDDSENMLFLQMNNLKTEDTAMYYCVRHGRRDLLYSMDFWGQGTSVTVSS VL: DIVMTQAAFSNPVTLGTSASISCRSSKSLLHSNGITYLFWYLQKPGQSPQLLIYQMSNLASGVPDRFSGSGSGTDFTLRISRVEAEDVGVYYCAQSLELPLTFGGGTKLEIK	MFI	MFI	13200
589D7C7 (antibody, V domains shown, Murine hybridoma antibody; also called 589D7C7 hybridoma antibody) VH: EVQLVESGGGLVQPKGSLKLSCAASGFNFNAYAMNWVRQAPGKGLEWVARIRSKSNNFATYYADSVKDRFTISRDDSESMVYLEMNNLKTEDTAMYYCVRHGRRDLLYSMDFWGQGTSVTVSS VL: DIVMTQAAFSNPVTLGTSASISCRSSKSLLHSNGITYLFWYLQKPGQSPQLLIYQMSNLASGVPDRFSGSGSGTDFTLRISRVEAEDVAVYYCAQSLELPLTFGGGTKLEIK	MFI	MFI	15200
563E10E12 (antibody, V domains shown, Murine hybridoma antibody; also called 563E10E12 hybridoma antibody) VH: EVQLIESGGGLVQPKGSLKLSCAASGFNFNAYAMNWVRQAPGKGLEWVARIRSKSNNFATYYADSVTDRFTISRDDSESMLYLQMNNLKTEDTAMYYCVRHGRRDLLYSMDFWGQGTSVTVSS VL: DVVMTQAAFSNPVTLGTSTSISCRSSKSLLHSNGITYLFWYLQKPGQSPQLLIYQMSNLASGVPDRFSGSGSGTDFTLRISRVEAEDVGVYYCAQSLELPLTFGGGTKLEIK	MFI	MFI	16900
27B9-1G3 (antibody, V domains shown, Murine hybridoma antibody (supernatant or Protein A purified); also called 27B9-1G3 hybridoma antibody) VH: EIQLQQSGPELEKPGASVKISCKASGYSFTGYNMNWVKKSNGKSLEWIGNIDPYYGGTNYNQKFKGKATLTVDKSSSTAYMQLKSLTSEDSAVYYCARETWFITTGVIKKGFYFDYWGQGTTLTVSS VL: EIVLTQSPTTMAASPGEKITLACSASSIISSNYLHWYQQKPGFSPKLLIYRTSSLASGVPARFSGSGSGTSYSLTIGTMEAEDVATYYCQQGSSIPRTFGGGTKLEIK	MFI	MFI	14000
559E1B10 (antibody, V domains shown, Murine hybridoma antibody; also called 559E1B10 hybridoma antibody) VH: KVQLQQSGPVLVKPGASVKMSCKASGYTFTDYYVNWMKQNYGKSPEWIGVINPHNGDTRYNQKFKGKATLTVDKSSSTANMELTSLTSGDSAVYYCASWLRRGYYFDSWGQGTTLTVSS VL: DIVMTQSPATLSVTPGDRVSLSCRASQSISDYLHWYQQKSHESPRLLLKYVSQSISGIPSRFSGSGSGSDFTLTINSVEPEDVGVYYCQNGHSFPLTFGAGTKLELK	MFI	MFI	21900
